test: Solubility studies of compound I; type: physicochemical; conditions: 16% H2O-84% THF, organic solvent or mixture, 16% H2O-84% THF; read-out: Solubility
Assay readout: solubility (mg/mL)

Cpd smiles | Obs value
C#CCOc1ccc(Nc2nc(Nc3ccc(C)c(S(N)(=O)=O)c3)ncc2F)cc1 | 163

---

test: Solubility studies of compound I; type: physicochemical; conditions: glycofurol/water 8/2, organic solvent or mixture, Glycofurol/water 8/2; read-out: Solubility

Molecule | solubility
C#CCOc1ccc(Nc2nc(Nc3ccc(C)c(S(N)(=O)=O)c3)ncc2F)cc1 [Compound I] | < 205 mg/mL

---

assay: Solubility studies of compound I; format: physicochemical; conditions: 5% THF-95% PEG400, organic solvent or mixture, 5% THF-95% PEG400; read-out: Solubility

Cpd smiles | solubility / mg/mL
C#CCOc1ccc(Nc2nc(Nc3ccc(C)c(S(N)(=O)=O)c3)ncc2F)cc1 | 117

From: patent US9040061B2
